METHOD SUMMARY: Parallel artificial membrane permeability assay for the blood–brain barrier (PAMPA-BBB)
Format: in vitro ADME
CONDITIONS USED: donor pH 7.4, acceptor pH 7.4, 37 °C, 4 h, n = 9; Pe in cm/s; n.d. = not detected in the acceptor phase
Procedure: The test solutions were prepared with dimethyl sulfoxide (DMSO) at the concentration of 10.0 mM. […] After the incubation the PAMPA plates were separated and the compound concentrations in the donor (CD(t)) and acceptor (CA(t)) solutions, as well as in the donor solution at the zero time point (CD(0)) were determined by UHPLC-DAD. […]

| COMPOUND | log Pe PAMPA-BBB |
| --- | --- |
| O=C(/C=C/CCc1ccc(O)cc1)CCc1ccc(O)cc1 [platyphyllenone (5), platyphyllenone] | > −6.0 |
